Molecular target: intestinal alkaline phosphatase (Mus musculus)
Assay: mouse IAP inhibition by analogs – biochemical, luminescence, set 2, SAR follow-up (AID 588647)
Conditions: purified mouse IAP, luminescent substrate read-out
The source made the active and inactive calls. No rule for the calls is given here.
Respond only with the outcome that fits, drawn from T = active, F = inactive

Exam item: Which result was noted for this compound in the test: `N#Cc1cccc(NS(=O)(=O)c2ccc3[nH]c(=O)oc3c2)c1`
Marked response: F

Exam item: How did this test come out for COc1ccc(OC)c(NC(=O)C2CCCN(S(=O)(=O)c3ccc4c(c3)oc(=O)n4C)C2)c1 (stereo not given) ?
Marked response: F

Exam item: # fetch the recorded call for `COc1ccc(CNC(=O)CNS(=O)(=O)c2ccc3[nH]c(=O)oc3c2)c(OC)c1` here
Marked response: F

Exam item: What did this assay record as the result for `C/C(=N\NC(=O)c1cc(O)c(O)c(O)c1)c1ccc(O)cc1O` ?
Marked response: T

Exam item: Could you check what this test reported for `COc1ccc(NC(=O)CCCNS(=O)(=O)c2ccc3[nH]c(=O)oc3c2)c(OC)c1` ?
Marked response: T

Values from PubChem BioAssay AID588647
